Let's go through some recorded Ki values for UniProt:P29274 together.
Sequence (P29274 whole entry): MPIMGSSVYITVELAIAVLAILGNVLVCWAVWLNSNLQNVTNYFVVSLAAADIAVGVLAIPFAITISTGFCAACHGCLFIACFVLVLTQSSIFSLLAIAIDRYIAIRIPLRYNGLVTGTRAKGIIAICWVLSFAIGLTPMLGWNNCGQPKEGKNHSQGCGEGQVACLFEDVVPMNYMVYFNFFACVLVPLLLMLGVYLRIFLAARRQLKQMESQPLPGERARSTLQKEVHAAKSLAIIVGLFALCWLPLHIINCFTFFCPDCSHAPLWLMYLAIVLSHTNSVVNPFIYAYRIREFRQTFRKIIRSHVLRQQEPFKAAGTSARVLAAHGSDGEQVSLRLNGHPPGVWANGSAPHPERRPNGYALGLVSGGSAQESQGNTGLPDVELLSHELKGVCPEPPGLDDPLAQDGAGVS

smiles.notation: O=C(Nc1nc2nn(CCc3ccccc3)cc2c2nc(-c3ccc(Br)cc3)nn12)c1ccccc1
system: UniProt:P29274
Ki: > 100 µM

smiles.notation: COc1ccc(-c2nc3c4cn(C)nc4nc(NC(=O)Cc4ccccc4)n3n2)cc1
system: UniProt:P29274
Ki: > 100 µM

smiles.notation: Cn1cc2c(nc(NC(=O)c3ccccc3)n3nc(-c4ccc(F)cc4)nc23)n1
system: UniProt:P29274
Ki: > 100 µM

Please give measured Ki of the following entry: Nc1nc2nn(CCc3ccccc3)cc2c2nc(-c3ccc(Br)cc3)nn12
> 30 µM
